assay-target: Melanocyte-stimulating hormone receptor (Mus musculus, UniProt Q01727)
Sequence (Q01727 whole entry): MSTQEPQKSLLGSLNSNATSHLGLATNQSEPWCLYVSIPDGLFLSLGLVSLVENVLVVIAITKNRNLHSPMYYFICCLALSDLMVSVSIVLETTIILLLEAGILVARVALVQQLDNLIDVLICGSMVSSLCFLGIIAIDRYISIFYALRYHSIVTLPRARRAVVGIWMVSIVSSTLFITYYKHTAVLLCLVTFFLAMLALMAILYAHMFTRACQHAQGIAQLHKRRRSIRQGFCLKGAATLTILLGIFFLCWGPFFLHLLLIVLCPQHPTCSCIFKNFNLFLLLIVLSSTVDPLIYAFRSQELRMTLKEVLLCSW
assay-text: Agonist activity at mouse melanocortin 1 receptor expressed in HEK293 cells by AlphaScreen cAMP assay
Type: functional, cell-based
outcome-measure: EC50 (µM)
Number only, in µM; omit the unit.

Notebook: Ac-EIAEVLARWTGIPV-NH2 , EC50 read as 41
